B1: NP_006221.1 (parent)
chain: CQPISFSGFGAEDDDLGGLGLGP

Variants of: B1
Assay: protein stability index of a GFP-peptide fusion (GPS, HEK-293T) (PSI 1-6); higher = more stable;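 further: lentivirally expressed fusion library, cells FACS-sorted into six equal-sized GFP/DsRed ratio bins, PSI computed from sequencing read fractions per bin weighted by bin number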
Settings: c terminus: native
List of protein stability index values.
Measured quantity: protein stability index

[[record]]
residue_codes = "CQPISFSGFGAEDDDLGTLGLGP [G18T]"
measured_quantity = "protein stability index"
value_measured = 2.23

[[record]]
residue_codes = "CQPISFSGFGAEDDDLGGLGLGM [P23M]"
measured_quantity = "protein stability index"
value_measured = 2.91

[[record]]
residue_codes = "QQPISFSGFGAEDDDLGGLGLGP [C1Q]"
measured_quantity = "protein stability index"
value_measured = 2.37

[[record]]
residue_codes = "CQPISFSGFGAEDDPLGGLGLGP [D15P]"
measured_quantity = "protein stability index"
value_measured = 2.38

[[record]]
residue_codes = "CQPISFSGFGAEDDDLGGQGLGP [L19Q]"
measured_quantity = "protein stability index"
value_measured = 2.39

[[record]]
residue_codes = "CQPISFSGFGAETDDLGGLGLGP [D13T]"
measured_quantity = "protein stability index"
value_measured = 2.28

[[record]]
residue_codes = "CCPISFSGFGAEDDDLGGLGLGP [Q2C]"
measured_quantity = "protein stability index"
value_measured = 2.14

[[record]]
residue_codes = "CQPISFSGFGAEDDDLGGAGLGP [L19A]"
measured_quantity = "protein stability index"
value_measured = 2.72

[[record]]
residue_codes = "CQPISFSGFGAEDDDLQGLGLGP [G17Q]"
measured_quantity = "protein stability index"
value_measured = 2.12

[[record]]
residue_codes = "CQPISFSGFGAEDDDLGGLGLGN [P23N]"
measured_quantity = "protein stability index"
value_measured = 4.72

[[record]]
residue_codes = "CQPISFSGFGAEDDDLGGLGLIP [G22I]"
measured_quantity = "protein stability index"
value_measured = 2.37

[[record]]
residue_codes = "CQPISFSGFGAEDDDLGGLDLGP [G20D]"
measured_quantity = "protein stability index"
value_measured = 2.58

[[record]]
residue_codes = "CQPISFSRFGAEDDDLGGLGLGP [G8R]"
measured_quantity = "protein stability index"
value_measured = 2.52

[[record]]
residue_codes = "CQPISFSGFGAEDDDLGGVGLGP [L19V]"
measured_quantity = "protein stability index"
value_measured = 2.11

[[record]]
residue_codes = "CQPISFSGFGAEDDDLMGLGLGP [G17M]"
measured_quantity = "protein stability index"
value_measured = 1.7

[[record]]
residue_codes = "CQPISFSGFGGEDDDLGGLGLGP [A11G]"
measured_quantity = "protein stability index"
value_measured = 2.36

[[record]]
residue_codes = "CQPISFSGFGAEDDHLGGLGLGP [D15H]"
measured_quantity = "protein stability index"
value_measured = 2.08

[[record]]
residue_codes = "CRPISFSGFGAEDDDLGGLGLGP [Q2R]"
measured_quantity = "protein stability index"
value_measured = 2.17

[[record]]
residue_codes = "CQPISPSGFGAEDDDLGGLGLGP [F6P]"
measured_quantity = "protein stability index"
value_measured = 4.41

[[record]]
residue_codes = "CQPISFSGFGAEDDDLGGLGLGI [P23I]"
measured_quantity = "protein stability index"
value_measured = 2.95

[[record]]
residue_codes = "CQPISFSGFGAYDDDLGGLGLGP [E12Y]"
measured_quantity = "protein stability index"
value_measured = 2.12

[[record]]
residue_codes = "CQPISFRGFGAEDDDLGGLGLGP [S7R]"
measured_quantity = "protein stability index"
value_measured = 2.56

[[record]]
residue_codes = "LQPISFSGFGAEDDDLGGLGLGP [C1L]"
measured_quantity = "protein stability index"
value_measured = 1.97

[[record]]
residue_codes = "CQPIYFSGFGAEDDDLGGLGLGP [S5Y]"
measured_quantity = "protein stability index"
value_measured = 2.25

[[record]]
residue_codes = "CQPISFSGFGAEDDNLGGLGLGP [D15N]"
measured_quantity = "protein stability index"
value_measured = 2.18

[[record]]
residue_codes = "CQPISFSGFGAEDDDDGGLGLGP [L16D]"
measured_quantity = "protein stability index"
value_measured = 2.22

[[record]]
residue_codes = "CQPISFSGKGAEDDDLGGLGLGP [F9K]"
measured_quantity = "protein stability index"
value_measured = 2.4

[[record]]
residue_codes = "CQPISFSGFGAEDDDLGPLGLGP [G18P]"
measured_quantity = "protein stability index"
value_measured = 1.99

[[record]]
residue_codes = "HQPISFSGFGAEDDDLGGLGLGP [C1H]"
measured_quantity = "protein stability index"
value_measured = 2.17

[[record]]
residue_codes = "CQPIIFSGFGAEDDDLGGLGLGP [S5I]"
measured_quantity = "protein stability index"
value_measured = 2.75

[[record]]
residue_codes = "CQPISVSGFGAEDDDLGGLGLGP [F6V]"
measured_quantity = "protein stability index"
value_measured = 3.43

[[record]]
residue_codes = "CQPISFSGFGAEDDDLGGLGLWP [G22W]"
measured_quantity = "protein stability index"
value_measured = 2.46

[[record]]
residue_codes = "CQPIGFSGFGAEDDDLGGLGLGP [S5G]"
measured_quantity = "protein stability index"
value_measured = 2.36

[[record]]
residue_codes = "EQPISFSGFGAEDDDLGGLGLGP [C1E]"
measured_quantity = "protein stability index"
value_measured = 2.53

[[record]]
residue_codes = "CQPISFSGFGAEDDLLGGLGLGP [D15L]"
measured_quantity = "protein stability index"
value_measured = 2.41

